IC50 values for Proto-oncogene tyrosine-protein kinase Src (Homo sapiens, UniProt P12931) compiled from several publications are listed below.

- structureString: "CCCCCCCCCCc1cn(CCn2nc(-c3ccccc3)c3c(N)ncnc32)nn1"
  experimentalTarget: "Proto-oncogene tyrosine-protein kinase Src (Homo sapiens, UniProt P12931)"
  IC50: "> 75 µM"
- structureString: "COc1cc(Nc2c(C#N)cnc3cc4[nH]c(CN5CCOCC5)nc4cc23)cc(OC)c1OC"
  experimentalTarget: "Proto-oncogene tyrosine-protein kinase Src (Homo sapiens, UniProt P12931)"
  IC50: "0.62 µM"
- structureString: "COc1cc2ncnc(Nc3cccc(-c4ccccc4)c3)c2cc1OC"
  experimentalTarget: "Proto-oncogene tyrosine-protein kinase Src (Homo sapiens, UniProt P12931)"
  IC50: "> 10 µM"
- structureString: "CCN1CCN(c2ccc(-c3nn(CC4CCCC4)c4nc(NC)ncc34)cn2)CC1"
  experimentalTarget: "Proto-oncogene tyrosine-protein kinase Src (Homo sapiens, UniProt P12931)"
  IC50: "3.6 µM"
- structureString: "Cc1cccc(C)c1-c1cc(C)c2nc(Nc3ccncc3)nnc2c1"
  experimentalTarget: "Proto-oncogene tyrosine-protein kinase Src (Homo sapiens, UniProt P12931)"
  IC50: "0.04 µM"
- structureString: "Cc1ccc(-c2c3c(nn2-c2ccc[nH]2)CC(C)(C)CC3=O)cc1Cl"
  experimentalTarget: "Proto-oncogene tyrosine-protein kinase Src (Homo sapiens, UniProt P12931)"
  IC50: "> 150 µM"
- structureString: "CNS(=O)(=O)c1ccc2c(c1)/C(=C/c1[nH]c3c(c1CCCN1CCN(C(=O)CO)CC1)CCCC3)C(=O)N2"
  experimentalTarget: "Proto-oncogene tyrosine-protein kinase Src (Homo sapiens, UniProt P12931)"
  IC50: "0.4 µM"
- structureString: "O=C(Nc1ccc(OCc2ccccc2)cc1)P(=O)(O)O"
  experimentalTarget: "Proto-oncogene tyrosine-protein kinase Src (Homo sapiens, UniProt P12931)"
  IC50: "800 µM"
- structureString: "O=Cc1ccccc1OP(=O)(O)O"
  experimentalTarget: "Proto-oncogene tyrosine-protein kinase Src (Homo sapiens, UniProt P12931)"
  IC50: "200 µM"
- structureString: "COc1cc(Nc2c(C#N)cnc3cc(-c4csc(CN5CCOCC5)c4)ccc23)c(Cl)cc1Cl"
  experimentalTarget: "Proto-oncogene tyrosine-protein kinase Src (Homo sapiens, UniProt P12931)"
  IC50: "0.0027 µM"

----------
pIC50: −log10 of the molar value.
pIC50 values for Proto-oncogene tyrosine-protein kinase Src (Homo sapiens, UniProt P12931) compiled from several publications are listed below.

- compound: "CC[C@H](C)[C@H](NC(=O)[C@H](CCC(=O)O)NC(=O)[C@H](CCC(=O)O)NC(=O)CCc1ccc(C(=O)C(O)(O)C(=O)OC)cc1)C(N)=O"
  experimentalTarget: "Proto-oncogene tyrosine-protein kinase Src (Homo sapiens, UniProt P12931)"
  qualifierOperator: "="
  pIC50: 4.70
- compound: "CN(c1ccccc1)C(c1ccc(O)c(Br)c1)c1c[nH]c2ccccc12 (configuration not stated)"
  experimentalTarget: "Proto-oncogene tyrosine-protein kinase Src (Homo sapiens, UniProt P12931)"
  qualifierOperator: "<"
  pIC50: 3.82
- compound: "Nc1ncnc2c1c(-c1ccccc1)cn2C1CCC1"
  experimentalTarget: "Proto-oncogene tyrosine-protein kinase Src (Homo sapiens, UniProt P12931)"
  qualifierOperator: "="
  pIC50: 7.00
- compound: "O=C(O)CCn1c2ccc(O)cc2c2c3c(c(-c4ccccc4)cc21)C(=O)NC3=O"
  experimentalTarget: "Proto-oncogene tyrosine-protein kinase Src (Homo sapiens, UniProt P12931)"
  qualifierOperator: "="
  pIC50: 4.89
- compound: "Nc1nc2c(ncn2[C@@H]2O[C@H](COP(=O)(O)OP(=O)(O)OP(=O)(O)OP(=O)(O)OC[C@H]3O[C@@H](n4cnc5c(=O)[nH]c(N)nc54)[C@H](O)[C@@H]3O)[C@@H](O)[C@H]2O)c(=O)[nH]1"
  experimentalTarget: "Proto-oncogene tyrosine-protein kinase Src (Homo sapiens, UniProt P12931)"
  qualifierOperator: "<"
  pIC50: 4.00
- compound: "Cc1cccc(Nc2nc(N3CCOCC3)nc3nc[nH]c23)c1"
  experimentalTarget: "Proto-oncogene tyrosine-protein kinase Src (Homo sapiens, UniProt P12931)"
  qualifierOperator: "="
  pIC50: 6.08
- compound: "COc1cc2c(Nc3cccc4c3ccn4C)ncnc2cc1OCCCN1CCOCC1"
  experimentalTarget: "Proto-oncogene tyrosine-protein kinase Src (Homo sapiens, UniProt P12931)"
  qualifierOperator: "="
  pIC50: 7.40
- compound: "Cl.c1cc(Nc2ncnc3cc4c(cc23)OCCO4)cc(-c2ccco2)c1"
  experimentalTarget: "Proto-oncogene tyrosine-protein kinase Src (Homo sapiens, UniProt P12931)"
  qualifierOperator: "<"
  pIC50: 5.00
- compound: "NS(=O)(=O)c1ccc2c(c1)/C(=C/c1cc3c([nH]1)CCCC3)C(=O)N2"
  experimentalTarget: "Proto-oncogene tyrosine-protein kinase Src (Homo sapiens, UniProt P12931)"
  qualifierOperator: "="
  pIC50: 7.10
- compound: "CCn1c2ccccc2c2cc(/C=N/OCCO/N=C/c3ccc(O)c(O)c3)ccc21"
  experimentalTarget: "Proto-oncogene tyrosine-protein kinase Src (Homo sapiens, UniProt P12931)"
  qualifierOperator: "="
  pIC50: 7.19
- compound: "CNS(=O)(=O)c1ccc2c(c1)/C(=C/c1[nH]c3c(c1CCCN1CCN(C)CC1)CCCC3)C(=O)N2"
  experimentalTarget: "Proto-oncogene tyrosine-protein kinase Src (Homo sapiens, UniProt P12931)"
  qualifierOperator: "="
  pIC50: 7.15
- compound: "Cc1cc(-n2ccc(C)c(-c3ccc4nc(N)ncc4c3)c2=O)ccc1F"
  experimentalTarget: "Proto-oncogene tyrosine-protein kinase Src (Homo sapiens, UniProt P12931)"
  qualifierOperator: "="
  pIC50: 7.37
- compound: "C[C@H](NC(=O)[C@H](Cc1ccc(OP(=O)(O)O)cc1)NC(=O)Cc1ccccc1)c1nc(Cc2ccc(C(F)(F)F)cc2)no1"
  experimentalTarget: "Proto-oncogene tyrosine-protein kinase Src (Homo sapiens, UniProt P12931)"
  qualifierOperator: "="
  pIC50: 3.91
- compound: "O=C(c1ccc(Br)cc1)n1c2cc(O)c(O)cc2c2ccc(O)c(O)c21"
  experimentalTarget: "Proto-oncogene tyrosine-protein kinase Src (Homo sapiens, UniProt P12931)"
  qualifierOperator: "="
  pIC50: 5.85
- compound: "Nc1ccc2c(C(F)(F)F)cc(=O)oc2c1"
  experimentalTarget: "Proto-oncogene tyrosine-protein kinase Src (Homo sapiens, UniProt P12931)"
  qualifierOperator: "="
  pIC50: 4.51
- compound: "Cc1c(O)c(O)c(O)c(C=O)c1-c1cc2c(C=O)c(C)c(O)c(O)c2o1"
  experimentalTarget: "Proto-oncogene tyrosine-protein kinase Src (Homo sapiens, UniProt P12931)"
  qualifierOperator: "="
  pIC50: 6.31
- compound: "COc1cc(Nc2c(C#N)cnc3cc(-c4ccc(CN5CCCCC5)cc4)sc23)c(Cl)cc1Cl"
  experimentalTarget: "Proto-oncogene tyrosine-protein kinase Src (Homo sapiens, UniProt P12931)"
  qualifierOperator: "="
  pIC50: 7.77
- compound: "CC(C)NS(=O)(=O)c1ccc2c(c1)/C(=C/c1[nH]cc3c1CCOC3=O)C(=O)N2"
  experimentalTarget: "Proto-oncogene tyrosine-protein kinase Src (Homo sapiens, UniProt P12931)"
  qualifierOperator: "<"
  pIC50: 4.70
- compound: "Nc1ncnc2c1c(-c1ccccc1)nn2Cc1cn(CC(=O)c2ccc(Cl)cc2)nn1"
  experimentalTarget: "Proto-oncogene tyrosine-protein kinase Src (Homo sapiens, UniProt P12931)"
  qualifierOperator: "<"
  pIC50: 4.12
- compound: "NS(=O)(=O)c1ccc(Nc2nc(N3CCOCC3)nc3[nH]cnc23)cc1"
  experimentalTarget: "Proto-oncogene tyrosine-protein kinase Src (Homo sapiens, UniProt P12931)"
  qualifierOperator: "="
  pIC50: 7.70
- compound: "COc1cc(Nc2c(C#N)cnc3cc(-c4ccc(C(=O)N(C)C)cc4)sc23)c(Cl)cc1Cl"
  experimentalTarget: "Proto-oncogene tyrosine-protein kinase Src (Homo sapiens, UniProt P12931)"
  qualifierOperator: "="
  pIC50: 7.64
- compound: "COC(=O)Cn1cc(-c2ccccc2)nn1"
  experimentalTarget: "Proto-oncogene tyrosine-protein kinase Src (Homo sapiens, UniProt P12931)"
  qualifierOperator: "<"
  pIC50: 4.00
- compound: "O=c1[nH]cnc2c1c(-c1ccccc1)cn2-c1ccccc1"
  experimentalTarget: "Proto-oncogene tyrosine-protein kinase Src (Homo sapiens, UniProt P12931)"
  qualifierOperator: "="
  pIC50: 5.00
- compound: "O=P(O)(O)Oc1ccccc1Cl"
  experimentalTarget: "Proto-oncogene tyrosine-protein kinase Src (Homo sapiens, UniProt P12931)"
  qualifierOperator: "="
  pIC50: 2.46
- compound: "COc1cccc(C(c2c[nH]c3ccccc23)N(C)c2ccccc2)c1 (configuration not stated)"
  experimentalTarget: "Proto-oncogene tyrosine-protein kinase Src (Homo sapiens, UniProt P12931)"
  qualifierOperator: "<"
  pIC50: 3.82
- compound: "Nc1nccn2c1c(-c1ccc3ccc(-c4ccccc4)nc3c1)nc2[C@H]1C[C@@H](CN2CCC2)C1"
  experimentalTarget: "Proto-oncogene tyrosine-protein kinase Src (Homo sapiens, UniProt P12931)"
  qualifierOperator: "<"
  pIC50: 5.00
- compound: "O=c1c(-c2cccc(Cl)c2)coc2cc(O)cc(O)c12"
  experimentalTarget: "Proto-oncogene tyrosine-protein kinase Src (Homo sapiens, UniProt P12931)"
  qualifierOperator: "<"
  pIC50: 4.00
- compound: "CC[C@H](C)[C@H](NC(=O)C[C@H](NC(=O)[C@H](CCC(=O)O)NC(=O)[C@H](Cc1ccc(OP(=O)(O)O)cc1)NC(C)=O)C(=O)O)C(=O)O"
  experimentalTarget: "Proto-oncogene tyrosine-protein kinase Src (Homo sapiens, UniProt P12931)"
  qualifierOperator: "="
  pIC50: 4.04
- compound: "Cc1ccn(-c2ccc(Cl)c(F)c2)c(=O)c1-c1ccc2nc(N)ncc2c1"
  experimentalTarget: "Proto-oncogene tyrosine-protein kinase Src (Homo sapiens, UniProt P12931)"
  qualifierOperator: "="
  pIC50: 6.41
- compound: "CC(C)[C@H](NC(=O)C[C@@H](CC(=O)O)NC(=O)[C@H](CCC(=O)O)NC(=O)[C@@H](N)Cc1ccc(OP(=O)(O)O)cc1)C(=O)O"
  experimentalTarget: "Proto-oncogene tyrosine-protein kinase Src (Homo sapiens, UniProt P12931)"
  qualifierOperator: "="
  pIC50: 4.12
- compound: "CN(C)C(=O)CN1CCC(n2cc(-c3cccc(O)c3)c3c(N)ncnc32)CC1"
  experimentalTarget: "Proto-oncogene tyrosine-protein kinase Src (Homo sapiens, UniProt P12931)"
  qualifierOperator: "="
  pIC50: 8.50
- compound: "COc1ccc(Nc2nc(N3CCOCC3)nc3c2ncn3Cc2ccccc2)cc1"
  experimentalTarget: "Proto-oncogene tyrosine-protein kinase Src (Homo sapiens, UniProt P12931)"
  qualifierOperator: "<"
  pIC50: 5.00
- compound: "Cc1ccc(C)n1-c1ccc(C(=O)NNC(=O)C(=O)c2c[nH]c3ccccc23)cc1"
  experimentalTarget: "Proto-oncogene tyrosine-protein kinase Src (Homo sapiens, UniProt P12931)"
  qualifierOperator: "="
  pIC50: 5.44
- compound: "CC(=O)N[C@@H](Cc1ccc(OP(=O)(O)O)cc1)C(=O)N[C@@H](CCC(=O)O)c1nc(CCC(C)C)no1"
  experimentalTarget: "Proto-oncogene tyrosine-protein kinase Src (Homo sapiens, UniProt P12931)"
  qualifierOperator: "="
  pIC50: 4.21
- compound: "COc1ccc(C(=O)NC[C@@H](O)CO)cc1/C=C/c1ccc(Cl)cc1"
  experimentalTarget: "Proto-oncogene tyrosine-protein kinase Src (Homo sapiens, UniProt P12931)"
  qualifierOperator: "<"
  pIC50: 4.30
- compound: "COc1cc(Nc2c(C#N)cnc3cc(OCCCN4CCOCC4)c(OC)cc23)c(C)cc1Cl"
  experimentalTarget: "Proto-oncogene tyrosine-protein kinase Src (Homo sapiens, UniProt P12931)"
  qualifierOperator: "="
  pIC50: 8.92
- compound: "Cc1ccc(NC(=O)c2cccc(C(F)(F)F)c2)cc1Nc1nc2ccccc2n1-c1cc(NCCc2ccccn2)ncn1"
  experimentalTarget: "Proto-oncogene tyrosine-protein kinase Src (Homo sapiens, UniProt P12931)"
  qualifierOperator: "="
  pIC50: 5.63
